Just for reference, paper PMC7945681 is where these values come from.

# Test system: human VCAM1
# assay-procedure: SPR measurement of peptide-VCAM1 binding
# run-conditions: ∣ΔGB,trans – ΔGB,cis∣ from SPR values
Answer each item with its documented ∣ΔΔGB∣.
One number for each entry.

Example results:
>  <substance>
cycloAZOB[G-VHAKQHRN-K*] (sidechain bridge or staple)

>  <∣ΔΔGB∣>
2.93

$$$$
>  <substance>
cycloAZOB[G-VHPKQHRS-K*] (sidechain bridge or staple)

>  <∣ΔΔGB∣>
2.52

$$$$
>  <substance>
cycloAZOB[G-VHPKQHRP-K*] (sidechain bridge or staple)

>  <∣ΔΔGB∣>
1.52

$$$$

Moving on to another substance below.
Exam item: Dear colleague, I am looking for the recorded ∣ΔΔGB∣ of the following substance: cycloAZOB[G-VHNKQHRP-K*] (sidechain bridge or staple)
Marked response: 1.84
